pIC50, O-acyltransferase (Oryctolagus cuniculus, UniProt G1SFD9), per-entry values.
pIC50: −log10 of the molar value.
Experimental Endpoint: pIC50

>  <Compound Smiles>
CCCCCCCCCCCCCC(=S)Nc1c(C(C)C)cccc1C(C)C

>  <Observed Result>
8.22

$$$$
>  <Compound Smiles>
C/C=C/C/C=C/C/C=C/C/C=C/C/C=C/C/C=C/CCCC(=O)Nc1c(C(C)C)cccc1C(C)C

>  <Observed Result>
7.35

$$$$

---

biological target: Acyl-CoA:cholesterol acyltransferase (Oryctolagus cuniculus, UniProt Q95214); experiment: Compound was tested for inhibitory activity against ACAT from rabbit liver
Sequence (Q95214 whole entry): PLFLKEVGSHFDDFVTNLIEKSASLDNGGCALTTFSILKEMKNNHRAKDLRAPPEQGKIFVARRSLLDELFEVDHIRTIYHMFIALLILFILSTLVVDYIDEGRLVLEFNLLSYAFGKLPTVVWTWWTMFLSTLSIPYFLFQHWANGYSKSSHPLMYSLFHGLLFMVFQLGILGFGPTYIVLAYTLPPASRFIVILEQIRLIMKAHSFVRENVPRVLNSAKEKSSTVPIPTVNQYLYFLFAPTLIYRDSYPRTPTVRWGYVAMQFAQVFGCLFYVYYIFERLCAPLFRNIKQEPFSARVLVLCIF
Experimental Endpoint: IC50

>  <Compound Smiles>
CCCCCCCCCCCCCC(=S)Nc1c(C(C)C)cccc1C(C)C

>  <Observed Result>
15 nM

$$$$
>  <Compound Smiles>
C/C=C/C/C=C/C/C=C/C/C=C/C/C=C/C/C=C/CCCC(=O)Nc1c(C(C)C)cccc1C(C)C

>  <Observed Result>
56 nM

$$$$
>  <Compound Smiles>
CCCCCCCCCCC(C)(C)C(=O)Nc1c(OC)cc(OC)cc1OC

>  <Observed Result>
191 nM

$$$$
